Recorded values, source PubChem BioAssay (NCI).

assay: NCI Yeast Anticancer Drug Screen. Data for the cln2 rad14 strain (AID 165);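 also: 0% = growth equal to vehicle treated cultures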; details: S. cerevisiae cln2 rad14 strain, at 50.0 µM (retest, dose inferred, filed as 5.0)
About 79,000 compounds went through this panel and 15% of them were active in at least one assay; those are over-represented in the sample as a whole. Calls of active or inactive are those of the source. Rule as the data show it: active = growth inhibition above about 70%; inactive = the rest.
Mark one answer only. Choices: 1.0 for active, 0.0 for inactive

Assay result, entry CCCCCCCSCC1C(=O)C23C(O)C1CCC2C12COC3(O)C(O)C1C(C)(C)CCC2O (stereo not drawn) — outcome? 1.0

Record request — test call for CC(C)(Br)C(=O)/C=C/c1ccccc1 1.0

Lab log entry: O=C1CSC(c2ccccc2)N1c1ccc(-c2ccc(-n3c(-c4ccccc4)nc4ccccc4c3=O)cc2)cc1 (stereo not drawn) — outcome as called in the assay? 0.0

Call for entry CCO/C=C1\SC(=S)N(c2ccc(OCC)cc2)C1=O : 0.0

Hello, I am checking results. What call was entered for CCOP(=O)(OCC)/C(C#N)=C/c1cccc(Oc2ccccc2)c1 ? 1.0

// param item: CCC(OC(C)=O)C1CC(C(C)C)CCC1C (stereo not drawn) ; yields the recorded call 1.0

For this compound, state the assay outcome: CCCCCCCCCCCCOCCOCCOCC(N)=O 1.0

Tell me the recorded outcome of this test for Cc1nc2sc3c(c2c(=O)o1)CCCC3 . 0.0

Hi, do you know how O=C(CCCN1CCC(Nc2ccc(F)cc2)(c2nnnn2C2CCCCC2)CC1)c1ccc(F)cc1 came out in this test? 0.0

Hi team, can someone confirm the assay call for COc1ccc2c3c1OC(C)C31CC(=O)CCC1CC2 (stereo not drawn) ? 0.0

So what was the verdict on O=C(O)c1c2ccc(Cl)cc2nc2[nH]c(=O)[nH]c(=O)c12 in this test? 0.0

For CN(C)CCNc1ccc2ncn3c4ccc(O)cc4c(=O)c1c23 , what call appears in the results of this test? 0.0

I would be grateful if you could indicate the recorded call for CCN(CC)C(=S)N/N=C(\C)c1ccccc1O . 1.0

Check the results log: what was the call for COC(=O)c1ccccc1N=NNc1cccc(SC)c1 ? 1.0

I'd appreciate the recorded outcome for O/N=c1/ccn(O)c2ccccc12 from this test. 1.0

Call for entry CCOP(=O)(OCC)/C(C#N)=C/c1ccc(-c2ccc(F)cc2F)o1 : 1.0

// return assay outcome for COc1ccc2cc3c4cc5c(cc4cc[n+]3cc2c1OC)OCO5 1.0

Please share the test call associated with CC1(C)CC(=O)C(/C=N/c2nc(-c3ccc(Br)cc3)cs2)=C(O)C1 . 1.0

Which outcome was assigned to CC(CN(C)C)C(=O)/C=C/c1ccc(Cl)c(Cl)c1 (stereo not drawn) in this test? 0.0

Answer briefly: the call reported for CCC1(O)C(=O)OCc2c1cc1n(c2=O)Cc2cc3c(N)cccc3nc2-1 (stereo not drawn) in this assay. 0.0

Identify the outcome logged in this assay for the compound shown: CNCC(C)CNC 0.0

Just curious, what result did CCCCCCCCCCCCCCCCCCNc1nc(=O)n(C2CC(OP(=O)(O)OCC3OC(n4cc(F)c(=O)[nH]c4=O)CC3O)C(CO)O2)cc1F (stereo not drawn) get here? 0.0

What is the recorded call for this compound in the test? COc1cc(OC)c(CSCC(NC(=O)OCC2c3ccccc3-c3ccccc32)C(=O)O)c(OC)c1 (stereo not drawn) 1.0

* * *

Field: growth inhibition. Provide a value for each of the compounds that follow.
assay: NCI Yeast Anticancer Drug Screen. Data for the mlh1 strain (AID 171);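 also: 0% = growth of vehicle-treated control cultures of the same strain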; settings: S. cerevisiae mlh1 strain growth inhibition; at 1.2 µM; active compounds read high
This is part of a sample that, as a whole, favours compounds with a hit. Of some 79,000 tested, about 15% had one in any assay. The source made the active and inactive calls. No stated cut-off is given here; in the data, active means growth inhibition above about 70%; inactive means the rest.

The compound listed as CCCC/C=C1\CCC(CN2CCCC2)C1=O (configuration not stated) shows growth inhibition equal to 22% (inactive)

Entry under test: C/C(=N\Sc1ccccc1)c1ccccc1O . Its growth inhibition was 2% (inactive)

Entry under test: CCCCCc1c(CCCC)c(=O)[nH]c2cc(CNCC(OC)OC)ccc12 . Its growth inhibition was -5% (inactive)

GET /value?item= C=CC(C)(C)N1C(=O)C(C(C)=O)=C(O)C1Cc1c[nH]c2ccccc12 (configuration not stated) &field=growth inhibition returns -6% (inactive)

Entry COc1cc2oc3ccccc3c(=O)c2cc1CSc1ccccc1N — recorded growth inhibition = -5% (inactive)

Summary for this compound, CC(C)OC(=O)NNc1c(Cl)cc(Cl)cc1Cl : growth inhibition is -2% (inactive)

Sample Brc1ccc(B2Nc3ccccc3N2)cc1 ; growth inhibition observed: 0% (inactive)

Summary for this compound, COc1ccc2c(c1)CCCC(Br)C2=O (configuration not stated) : growth inhibition is 26% (inactive)

According to the records, this compound Cc1ccc(S(=O)(=O)Nc2cccc3cccnc23)cc1 displays growth inhibition of 14% (inactive)

The compound identified as Cc1ccc(S(=O)(=O)N/N=C/C(Br)=C(/Br)C(=O)O)cc1 registered its growth inhibition at 35% (inactive)

Just so you know, measured growth inhibition for O=C1Oc2ccccc2C(=O)/C1=C/N1C(=O)N/C(=C\c2ccccc2Br)C1=O came out at 0% (inactive)

The reported growth inhibition of the compound CC1(C)CC(=O)C(/C=N/c2nc(-c3ccc(Br)cc3)cs2)=C(O)C1 was 3% (inactive)

* * *

assay: NCI Yeast Anticancer Drug Screen. Data for the cln2 rad14 strain (AID 165);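 also: 0% = growth equal to vehicle treated cultures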; conditions: S. cerevisiae cln2 rad14 strain, at 50.0 µM, active compounds read high
Compounds without any hit were thinned out: in the full panel of roughly 79,000, 15% have a hit.
metric: growth inhibition (%)
// note: answer is a bare numeric in %

Reported growth inhibition ( CC1=CC(C)(C)SC(SSSC2=NC(C)=CC(C)(C)S2)=N1 ) = 2.9

Query Brc1ccc(B2Nc3ccccc3N2)cc1 yields growth inhibition of 71.7

// recorded growth inhibition for N#CSCC1COc2ccccc2O1 (configuration not stated) : 85.3

Noted for c1ccc2nc3c(nc2c1)sc1ccccc13 : its growth inhibition reads 36

Lab book: growth inhibition of CCCCCCCN1C(=O)c2ccccc2C1=O noted as 30.6

Form: molecule = COc1ccc(C(C)c2cc3c(cc2OCC(C)=O)OCO3)cc1 (configuration not stated) ; growth inhibition = -48.7

Input Cc1cc(O)c(C(C)C)cc1SC#N . Output growth inhibition: 90.3

* * *

test: NCI Yeast Anticancer Drug Screen. Data for the rad50 strain (AID 155);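 also: 0% = growth of vehicle-only cultures of the same strain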; settings: S. cerevisiae rad50 strain growth inhibition; at 50.0 µM (retest, dose inferred, filed as 5.0); active compounds read high
Compounds without any hit were thinned out: in the full panel of roughly 79,000, 15% have a hit.
Answer each item with its documented growth inhibition.
Provide the reading as a plain figure in %.

Lab note: measured growth inhibition of O=NC1c2cccc3cccc(c23)C1N=O (stereo unspecified) was 96

Reported growth inhibition of O=C1CSC(c2ccccc2)N1c1ccc(-c2ccc(-n3c(-c4ccccc4)nc4ccccc4c3=O)cc2)cc1 (stereo unspecified) : 44

Lookup result for CC(=O)/C=C/c1cccc([N+](=O)[O-])c1 ; measured growth inhibition: 84

Quick note, growth inhibition for NC(CCCCCCCCCCCCC(N)C(=O)c1ccccc1)C(=O)c1ccccc1 (stereo unspecified) landed at 88

Reported growth inhibition for CCOC(=S)SSSC(=S)OCC was 99

Short answer for COc1ccc2cc3c4cc5c(cc4cc[n+]3cc2c1OC)OCO5 : growth inhibition was 96

The compound COc1ccc2nc3cccc([N+](=O)[O-])c3c(NCCCCCC(=O)O)c2c1 showed growth inhibition equal to 98

According to the records, this compound COc1cc(OC)c(CSCC(NC(=O)OCC2c3ccccc3-c3ccccc32)C(=O)O)c(OC)c1 (stereo unspecified) displays growth inhibition of 99

In plain terms, COc1ccc2c3c1OC(C)C31CC(=O)CCC1CC2 (stereo unspecified) has a documented growth inhibition of 23

Recorded growth inhibition (compound COc1c2c(c3c(c1CCC(=O)O)OC(C)(C)C=C3)OC(C)(C)C=C2 ): 45

Form field growth inhibition, entry CC1CCC(C2=CSC3CCCCC3N2)CC1 (stereo unspecified) : 13

* * *

experiment: NCI Yeast Anticancer Drug Screen. Data for the mgt1 strain (AID 153); details: S. cerevisiae mgt1 mutant growth inhibition; at 100.0 µM
Compounds without any hit were thinned out: in the full panel of roughly 79,000, 15% have a hit. Activity calls are given as the source filed them. No stated cut-off is given here; in the data, active means growth inhibition above about 70%; inactive means the rest.
Your answer must be one of the following: true = active, false = inactive

State the result this test recorded for O/N=c1/ccn(O)c2ccccc12 . true

Short answer needed: outcome of this test for O=C(O)/C=C\C(=O)Nc1ccc2c(c1)Cc1cc(Cl)ccc1-2 ? false

// return assay outcome for Cc1c2c(nc3ccccc13)C(=O)c1cccnc1C2=O true

Short answer needed: outcome of this test for O=S(=O)(c1cccc(C(F)(F)F)c1)N1c2ccccc2-n2cccc2C1c1cccnc1 (stereo unspecified) ? true

What is the recorded call for this molecule in the test? CCCNCC(=O)O[C@]1(CC)C(=O)OCc2c1cc1n(c2=O)Cc2cc3ccccc3nc2-1 true

What is the recorded call for this molecule in the test? CCOC(=O)C(Cc1c2ccccc2cc2ccccc12)(NC(C)=O)C(=O)OCC false
